The values you see were collected from PubChem BioAssay (NCI).

Consider the following compounds; for each one, report its TGI.
- Test system: SK-OV-3 ovarian
- METHOD_SUMMARY: NCI tumour cell line growth inhibition, 48 h
Numbers only, in µM.

Illustrative cases are given below, each with its answer.
{"columns": ["SMILES_STRUCTURE", "TGI / µM"],
 "data": [
  ["COc1cc2cn3c4ccc(O)cc4nc(N)c3c2cc1OC", 10.8],
  ["CCc1cccc(CC)c1Nc1nc2c(s1)C(=O)c1ccccc1C2=O", 89.8],
  ["O=Nc1ccc(O)c2ncccc12", 31.3]
]}

Attention now turns to another entry.
Ask: I'd like to know its TGI. The compound in question is `C=C(C)[C@@H]1CC[C@]2(C(=O)Nc3ccccn3)CC[C@]3(C)[C@H](CC[C@@H]4[C@@]5(C)CCCNC(C)(C)[C@@H]5CC[C@]43C)[C@@H]12`
Reply: 14.1

---

- Test system: HCT-116 colon
- METHOD_SUMMARY: NCI tumour cell line growth inhibition, 48 h
METRIC_NAME: TGI

List TGI for every entry below, keeping the order given.
1. Cc1nc2c(=O)n(C)c(=O)nc-2n(CCO)c1C
2. Cc1cc(S(N)(=O)=O)c(S/C(=N\Nc2ccc([N+](=O)[O-])cc2)c2ccc(O)cc2)cc1Cl
3. Cc1ccc(/C=N/NS(=O)(=O)c2ccccc2)cc1
4. CCc1nc(-n2c(CC)nc3ccccc3c2=O)nc(N)c1-c1ccc(Cl)cc1
5. Nc1ccc2ncc(Nc3ccc(F)cc3)nc2c1
6. Cc1ccc(-c2cn3c(nc4ccccc43)c(-c3ccccc3)n2)cc1

Reply:
1. > 100 µM
2. 10.6 µM
3. > 100 µM
4. > 100 µM
5. > 100 µM
6. > 100 µM

Below are 2 compounds. Give each one its TGI.
1. Cc1cc(S(=O)(=O)Nc2nc3ccccc3[nH]2)c(S)cc1Cl
2. CC(C)(O)/C=C\P(C)(=O)c1ccccc1 (stereo not drawn)

Reply:
1. 76.5 µM
2. > 100 µM

---

Consider the following compounds; for each one, report its TGI.
- Test system: ACHN renal
- METHOD_SUMMARY: NCI tumour cell line growth inhibition, 48 h

Completed entries (count: 6):
{"columns": ["COMPOUND", "RECORDED_VALUE"],
 "data": [
  ["C=C1C(=O)OC2/C=C(\\C)C(=O)CC3OC(C)(C)OC3(C)CC(OC(=O)/C(C)=C/C)C12 (stereo not given)", "16.6 µM"],
  ["OC(Cc1ccccc1)(Cc1ccccc1)c1ccccc1", "33.5 µM"],
  ["CC(=O)/C(N=Nc1ccc(-n2c(C)nc3ccc(Br)cc3c2=O)cc1)=C(/C)O", "> 100 µM"],
  ["CC(=O)OCC1OC(O[C@@H]2C[C@H]3C(C)(C)[C@H](OC(C)=O)CC[C@]3(C)[C@H]3CC[C@]4(C)C(=CC[C@H]4[C@@H](C)C[C@@H](O)[C@H](O)C(C)(C)O)[C@@]32C)C(O)C(O)C1O (stereo not given in full)", "30.4 µM"],
  ["Clc1ccccc1-c1nc(-c2ccncc2)no1", "> 100 µM"],
  ["CC(=O)Nc1ccc(-c2nc3ccccc3s2)cc1Cl", "> 100 µM"]
]}

For each of the items listed, what is its TGI?
1. CN1CCC(C(=O)NNc2ccccc2)CC1
2. C=C1CC23CCC4C(C)(C(=O)O)CCCC4(C)C2CCC1C3 (stereo not given)
3. CCc1cccc(CC)c1Nc1nc2c(s1)C(=O)c1ccccc1C2=O
4. c1ccc(CN2CCCN3CCN(CCCN(Cc4ccccc4)CC3)CC2)cc1
5. Clc1ccccc1C1N2CCCCC2[C@@H]2c3[nH]c4ccccc4c3CCN12 (stereo not given in full)
6. C/C1=N\NC(=O)c2ccccc2C(=O)N/N=C(\C)c2cccc1n2.O=[N+]([O-])[O-].[Zn+2]

Reply:
["> 68.9 µM", "> 100 µM", "32 µM", "> 100 µM", "45.8 µM", "> 100 µM"]

List reported TGI for each of these compounds:
1. CCOC(=O)C12CCSC1C1(C#N)C(C#N)=CC2(N=P(c2ccccc2)(c2ccccc2)c2ccccc2)n2c(=O)n(-c3ccccc3)c(=O)n21 (stereo not given)
2. O=C1CCc2nc3ncccc3cc2C1
3. Cc1ccc(-c2cn3c(nc4ccccc43)c(-c3ccccc3)n2)cc1
4. CC(C)c1cccc(C(C)C)c1NC(=O)C(=O)CC(=O)CC(c1ccccc1)c1c(O)c2ccccc2oc1=O (stereo not given)
5. CCOc1ccccc1NC(=O)C(=O)C(C(=O)c1ccc2ccccc2c1)C1OC(=O)c2ccccc21 (stereo not given)
6. N#Cc1c(N)c2c(c(-c3ccccc3)c1-c1ccccc1)C(=O)N(Nc1ccccc1)C2=O
7. COc1cc(C(C#N)NNC(=O)Cc2ccccc2)cc(OC)c1OC (stereo not given)

Reply:
1: > 100 µM; 2: > 100 µM; 3: > 100 µM; 4: > 100 µM; 5: > 100 µM; 6: > 100 µM; 7: > 100 µM

Ask: Item `CC(=O)c1cccc(Nc2c3ccccc3nc3occc23)c1` has what recorded TGI?
Reply: > 100 µM
